- Study system: VIM-1 (Pseudomonas aeruginosa (strain ATCC 15692 / DSM 22644 / CIP 104116 / JCM 14847 / LMG 12228 / 1C / PRS 101 / PAO1))
- Run description: biochemical
- Recorded conditions: fluorescence assay, CCF2-FA substrate, 30 pM enzyme, 2 hours at 25° C.; read-out: VIM-1 IC50
Reported IC50 by item:
# unit: nM | format: bare number

INPUT: Which measured IC50 value corresponds to C[C@H](CN)NS(=O)(=O)c1ccc(-c2ccc(N)nc2)c(-c2nn[nH]n2)c1S(N)(=O)=O ?
OUTPUT: 0.0454

INPUT: Next entry: NCCNS(=O)(=O)c1ccc(-c2cccnc2N)c(-c2nn[nH]n2)c1S(N)(=O)=O
OUTPUT: 0.205
